- assay overview: chemical genetic growth profiling, strain panel (AID 1159580);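 note: tested at 20 µM; growth read once vehicle control cultures reached saturation at 30 °C; 1 = growth at the plate median or of vehicle wells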
- stated conditions: S. cerevisiae deletion strains, growth OD, locus YKL190W, strain CNB1
Among all 5,500 compounds or so, about 2,000 (36%) were called active. Roughly 18% stayed inconclusive and do not appear here. Cut-off read from the data, not from the text of the source: active = normalized growth mostly below about 0.91 (no sharp cut-off); inconclusive = no clear call, values can overlap the other calls; inactive = mostly above about 0.92. This is one part of the list.
Answer with one of the outcomes given here: yes (active), no (inactive)

Examples from the recorded data:
| compound | class name |
| --- | --- |
| CC[C@@]1(O)C(=O)OCc2c1cc1n(c2=O)Cc2cc3ccccc3nc2-1 | no |
| C[C@@H](CO)NC(=O)C1C=C2c3cccc4[nH]cc(c34)C[C@H]2N(C)C1 (stereo partly specified) | no |
| CCOC(=O)CC(SP(=S)(OC)OC)C(=O)OCC (stereo unspecified) | no |
| O=C(O/N=C1/CCCc2[nH]c3ccccc3c21)c1ccc(Cl)cc1Cl | yes |
| O=c1c(O)cc([C@H]2Oc3cc(O)cc(O)c3C[C@H]2O)cc2c([C@H]3Oc4cc(O)cc(O)c4C[C@H]3O)cc(O)c(O)c12 | no |

Exercise: Recorded test call requested for CC1CCCC(C)N1NC(=O)c1ccc(Cl)c(S(N)(=O)=O)c1 (stereo unspecified)
Solution: no

Exercise: I would be grateful if you could indicate the recorded call for CC(=O)c1ccccc1OC(=O)c1c(-c2c(Cl)cccc2Cl)noc1C .
Solution: no

Exercise: Answer briefly: the call reported for NCC(O)CC(=O)O (stereo unspecified) in this assay.
Solution: no

====

- assay overview: chemical genetic growth profiling, strain panel (AID 1159580)
- stated conditions: S. cerevisiae deletion strains, growth OD, locus YDL005C, strain med2, active compounds read low
Among all 5,500 compounds or so, about 2,000 (36%) were called active. Another 18% or so got no clear call; they are omitted. The list shows a part of the results.
Note to self: use Condition met only for normalized growth readings below 1; a reading exactly at 1 still gets Condition not met.

Exercise: Here's an entry: O=C(O)CCc1nc(-c2ccccc2)c(-c2ccccc2)o1 . Is its normalized growth below 1?
Solution: Condition met

Exercise: Determine if COC(=O)NC(=S)Nc1ccccc1NC(=S)NC(=O)OC shows normalized growth strictly lower than 1.
Solution: Condition met

Exercise: Criterion: normalized growth strictly below 1. Is it met by CN[C@H]1CC[C@@H](c2ccc(Cl)c(Cl)c2)c2ccccc21 ?
Solution: Condition not met

====

- assay overview: chemical genetic growth profiling, strain panel (AID 1159580)
- stated conditions: S. cerevisiae deletion strains, growth OD, locus YLR371W, strain rom2
Screen size: about 5,500 compounds; about 2,000 (36%) were called active. About 18% were inconclusive and are not listed. Rule as the data show it: active = normalized growth mostly below about 0.91 (no sharp cut-off); inconclusive = no clear call, values can overlap the other calls; inactive = mostly above about 0.92. The list shows a part of the results.
Allowed answers: true = active, false = inactive

The following compounds have reported results that may help.
| compound | class name |
| --- | --- |
| NS(=O)(=O)c1cc2c(cc1C(F)(F)F)NC(Cc1ccccc1)NS2(=O)=O (stereo not drawn) | false |
| Cc1c(C(N)=O)cc([N+](=O)[O-])cc1[N+](=O)[O-] | false |
| CO[C@@H]1[C@@H](OC(N)=O)[C@@H](O)[C@H](Oc2ccc3c(O)c(NC(=O)c4ccc(O)c(CC=C(C)C)c4)c(=O)oc3c2C)OC1(C)C | false |
| CC(=O)N1CCCC1C(=O)O (stereo not drawn) | false |

Kindly consider the entry below.
Exercise: # outcome recorded in this test, key = COc1cccc2c1CCC1=CC(=O)CC[C@@]12C
Solution: false

====

- assay overview: chemical genetic growth profiling, strain panel (AID 1159580)
- stated conditions: S. cerevisiae deletion strains, growth OD, locus YBR279W, strain paf1, active compounds read low
The campaign covered roughly 5,500 compounds. About 2,000 (36%) were called active. Inconclusive results (about 18%) are left out. Some of the results follow.
property label: normalized growth
# print the numeric value only

For orientation, consider the following solved cases.
| molecule | normalized growth |
| --- | --- |
| CC1(C)S[C@@H]2[C@H](NC(=O)[C@@H](N)c3ccc(O)cc3)C(=O)N2[C@H]1C(=O)O | 0.99 |
| CCCCC(=O)O[C@]1(C(=O)CO)[C@@H](C)CC2C3CCC4=CC(=O)C=C[C@]4(C)[C@@]3(F)C(O)C[C@@]21C (some centres undefined) | 0.991 |
| CCC(=O)O[C@]1(C(=O)CCl)[C@@H](C)CC2C3CCC4=CC(=O)C=C[C@]4(C)[C@@]3(F)[C@@H](O)C[C@@]21C (some centres undefined) | 1 |

Exercise: Look at this molecule and give its reported normalized growth. O=C(O)CCc1nc(-c2ccccc2)c(-c2ccccc2)o1
Solution: 0.975

====

- assay overview: chemical genetic growth profiling, strain panel (AID 1159580);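 note: tested at 20 µM; growth read once vehicle control cultures reached saturation at 30 °C; 1 = growth at the plate median or of vehicle wells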
- stated conditions: S. cerevisiae deletion strains, growth OD, locus YOR316C, strain cot1, active compounds read low
Hit rate of the full screen: of about 5,500 compounds, about 2,000 (36%) were called active. Not shown: some 18% with an inconclusive outcome. The list shows a part of the results.
property label: normalized growth
Answer with the value's number alone.

Exercise: Dear colleague, I am looking for the recorded normalized growth of the following molecule: COc1cc(O)c2c(=O)cc(-c3ccc(OC)c(-c4c(O)cc(O)c5c(=O)cc(-c6ccc(O)cc6)oc45)c3)oc2c1
Solution: 0.989

Exercise: Which normalized growth is reported for this molecule? COc1ccc(-c2cc(=O)c3c(O)cc(O)c(-c4cc(-c5cc(=O)c6c(O)cc(O)cc6o5)ccc4OC)c3o2)cc1
Solution: 1.01

Exercise: Sample COc1cc(O)c2c(=O)cc(-c3ccc(O)cc3)oc2c1 — what was its normalized growth?
Solution: 1.02

Exercise: Using the record for NC[C@H]1O[C@H](OC2[C@@H](N)C[C@@H](N)[C@H](O[C@H]3O[C@H](CO)[C@@H](O)[C@H](N)[C@H]3O)[C@H]2O)[C@H](O)[C@@H](O)[C@@H]1O (some centres undefined) , report its normalized growth.
Solution: 0.98

Exercise: Reported normalized growth for CCC(=O)O[C@]1(C(=O)CCl)[C@@H](C)CC2C3CCC4=CC(=O)C=C[C@]4(C)[C@@]3(F)[C@@H](O)C[C@@]21C (some centres undefined) : what is it?
Solution: 0.991

Exercise: Item under review: COc1cc(C(=O)N2CCOCC2)cc(OC)c1OC . Reported normalized growth?
Solution: 0.0956

Exercise: Requested read-out: normalized growth. Entry: COc1ccc(-c2cc(=O)c3c(O)c(OC)c(O[C@H]4O[C@H](CO[C@@H]5O[C@@H](C)[C@H](O)[C@@H](O)[C@H]5O)[C@@H](O)[C@H](O)[C@H]4O)cc3o2)cc1
Solution: 1.02

Exercise: Dear colleague, I am looking for the recorded normalized growth of the following molecule: COc1cc(C)c2c(=O)c3c(O)cc(O)cc3oc2c1
Solution: 0.96

====

- assay overview: chemical genetic growth profiling, strain panel (AID 1159580);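 note: tested at 20 µM; growth read once vehicle control cultures reached saturation at 30 °C; 1 = growth at the plate median or of vehicle wells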
- stated conditions: S. cerevisiae deletion strains, growth OD, locus YBR231C, strain swc5
Out of some 5,500 compounds screened, about 2,000 (36%) were called active. Another 18% or so got no clear call; they are omitted. No stated cut-off is given here; in the data, active means normalized growth mostly below about 0.91 (no sharp cut-off); inconclusive means no clear call, values can overlap the other calls; inactive means mostly above about 0.92. This is one part of the list.
Can you answer with just one of these options? label 1 (active), label 0 (inactive)

Exercise: Give the logged outcome of this assay for the following compound: C/C=C(\C)C(=O)O[C@@H]1c2c(ccc3ccc(=O)oc23)OC(C)(C)[C@@H]1OC(C)=O
Solution: label 0

====

- assay overview: chemical genetic growth profiling, strain panel (AID 1159580);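 note: tested at 20 µM; growth read once vehicle control cultures reached saturation at 30 °C; 1 = growth at the plate median or of vehicle wells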
- stated conditions: S. cerevisiae deletion strains, growth OD, strain wtn01, active compounds read low
Out of some 5,500 compounds screened, about 2,000 (36%) were called active. Roughly 18% stayed inconclusive and do not appear here. The list shows a part of the results.
property label: normalized growth
Field format: numeric only.

| compound | value measured |
| --- | --- |
| CSc1nc(NC(C)C)nc(NC(C)C)n1 | 1.01 |
| COc1cc(C)c2c(=O)c3c(O)cc(OC)cc3oc2c1 | 0.986 |
| NC[C@H]1O[C@H](O[C@H]2[C@H](O)[C@@H](O[C@H]3O[C@H](CO)[C@@H](O)[C@H](N)[C@H]3O)[C@H](N)C[C@@H]2N)[C@H](N)[C@@H](O)[C@@H]1O | 0.948 |
| C[C@]12CCC(=O)C=C1CCc1ccc(O)cc12 | 0.992 |
| C[C@@H](CO)NC(=O)C1C=C2c3cccc4[nH]cc(c34)C[C@H]2N(C)C1 (stereo not given in full) | 0.999 |
| COc1nc(NC(C)C)nc(NC(C)C)n1 | 1.01 |
| CCOC(=O)C1=C(O)C(=O)N(Cc2ccccc2)C1 | 1 |
| COC(=O)NC(=S)Nc1ccccc1NC(=S)NC(=O)OC | 1.02 |

Exercise: Give its normalized growth value. Item: COc1cc(O)c2c(=O)cc(-c3ccc(OC)c(-c4c(O)cc(O)c5c(=O)cc(-c6ccc(O)cc6)oc45)c3)oc2c1
Solution: 0.969

Exercise: Entry under review: CCC(=O)OCC(=O)C1(OC(=O)CC)C(C)CC2C3CCC4=CC(=O)C=CC4(C)C3(Cl)C(O)CC21C (stereo not given) . Reported normalized growth?
Solution: 0.977
